Each entry below carries its recorded RLM.
Test: Rat liver microsome stability (RLM) experiment
Format: in vitro ADME
Conditions: rat liver microsomal stability, Table 4; 0.5 mg protein/mL, NADPH, 37° C., 0-45 min
Experimental: Effect embodiment 3 Rat liver microsome stability (RLM) experiment Rat liver microsomes (Xenotech, item No. R1000, lot No. 1310030), 100 mM potassium phosphate buffer solution (pH 7.4), 10 mM magnesium chloride. Compound preparation: 5 μL of compound DMSO mother liquor (10 mM) was added to 495 μL of methanol to obtain an intermediate solution with a compound concentration of 100 μM. […]
Please respond with the number in µL/min/mg and leave the unit unwritten.

Q. Please report RLM for the following compound: `COc1cc2nnc(-c3cc(C)on3)n2nc1OCc1ccc2c(n1)CN(C)C2`
A. 6

Q. Please report RLM for the following compound: `COc1cc2nnc(-c3cc(C)on3)n2nc1OCc1ccc(C2(F)CN(C3COC3)C2)cn1`
A. 6

Q. Please report RLM for the following compound: COc1cc2nnc(-c3cc(C)on3)n2nc1OCc1ccc(OC2CCOC2)nn1 (centres unmarked)
A. 1

Q. Please report RLM for the following compound: `COc1cc2nnc(-c3cc(C)on3)n2nc1OCc1ccc2c(n1)CCN(C(CO)CO)C2`
A. 9

Q. Please report RLM for the following compound: `COc1cc2nnc(-c3cc(C)on3)n2nc1OCc1ccc2c(n1)CN(C1CCOCC1)C2`
A. 10

Further cases:
Q. Please report RLM for the following compound: `COCCOCc1ccc(COc2nn3c(-c4cc(C)on4)nnc3cc2OC)nn1`
A. 0

Q. Please report RLM for the following compound: `COCCCOc1ccc(COc2nn3c(-c4noc(C)n4)nnc3cc2OC)nn1`
A. 14

Q. Please report RLM for the following compound: `COc1cc2nnc(-c3cc(C)on3)n2nc1OCc1ccc2c(n1)CCN(C1CCOCC1)C2`
A. 22

* * *

Assay: Thermodynamic solubility in phosphate buffer solution (TS in PBS)
Assay type: physicochemical
Conditions: aqueous buffer, thermodynamic from solid, 50 mM phosphate buffer solution pH 7.4, shaken at room temperature for 24 hours
MEASURED PARAMETER: log10 of solubility thermodynamic at 24 h (log10 of the value in µg/mL)
A difference of one corresponds to tenfold solubility thermodynamic at 24 h; all values are log10 with solubility thermodynamic at 24 h in µg/mL.

Past entries and their recorded results:
Q. Please report log10 of solubility thermodynamic at 24 h for the following compound: Cc1cc(-c2nnc3cc(C(C)(C)C)c(OCc4ccccn4)nn23)no1 [drawing 918]
A. 0.41

Q. Please report log10 of solubility thermodynamic at 24 h for the following compound: CCNC(=O)c1ccc(COc2nn3c(-c4cc(C)on4)nnc3c3ccccc23)nc1 [drawing 920]
A. -0.10

Q. Please report log10 of solubility thermodynamic at 24 h for the following compound: CCNC(=O)c1ccc(COc2nn3c(-c4cc(C)on4)nnc3cc2C(C)(C)C)nc1 [drawing 921]
A. 0.40

Q. Please report log10 of solubility thermodynamic at 24 h for the following compound: COc1cc2nnc(-c3cc(C)on3)n2nc1OCc1ccccn1 [drawing 916]
A. 1.30

Q. Please report log10 of solubility thermodynamic at 24 h for the following compound: CCNC(=O)c1ccc(COc2nn3c(-c4cc(C)on4)nnc3cc2OC)nc1 [drawing 919]
A. 1.15

Further cases:
Q. Please report log10 of solubility thermodynamic at 24 h for the following compound: Cc1cc(-c2nnc3c4ccccc4c(OCc4ccccn4)nn23)no1 [drawing 917]
A. -0.52
